Reported values of MIC90 for individual entries
- Tested on: Staphylococcus lugdunensis
- protocol-details: Antimicrobial susceptibility of Staphylococcus lugdunensis isolates by broth microdilution method
- Assay type: functional
- settings: Staphylococcus lugdunensis

# compound, endpoint-result
records = [
    ("CC(=O)NC[C@H]1CN(c2ccc(N3CCOCC3)c(F)c2)C(=O)O1 [LINEZOLID]", "1 µg/mL"),
]

Req: Enter reported MIC90 observed with Staphylococcus lugdunensis for CN(C)[C@@H]1C(O)=C(C(N)=O)C(=O)[C@@]2(O)C(O)=C3C(=O)c4c(O)cccc4[C@@](C)(O)[C@H]3C[C@@H]12 [TETRACYCLINE]
Resp: 1 µg/mL

Req: Enter reported MIC90 observed with Staphylococcus lugdunensis for COc1c(N2C[C@@H]3CCCN[C@@H]3C2)c(F)cc2c(=O)c(C(=O)O)cn(C3CC3)c12 [MOXIFLOXACIN]
Resp: 0.25 µg/mL

Req: Enter reported MIC90 observed with Staphylococcus lugdunensis for CCOc1ccc2ccccc2c1C(=O)N[C@@H]1C(=O)N2[C@@H]1SC(C)(C)[C@@H]2C(=O)O [NAFCILLIN]
Resp: 0.5 µg/mL

Req: Enter reported MIC90 observed with Staphylococcus lugdunensis for Cc1nnc(SCC2=C(C(=O)O)N3C(=O)[C@@H](NC(=O)Cn4cnnn4)[C@H]3SC2)s1 [CEFAZOLIN]
Resp: 0.5 µg/mL

Req: Enter reported MIC90 observed with Staphylococcus lugdunensis for `CCCCCCCCCC(=O)N[C@@H](Cc1c[nH]c2ccccc12)C(=O)N[C@H](CC(N)=O)C(=O)N[C@@H](CC(=O)O)C(=O)N[C@@H]1C(=O)NCC(=O)N[C@@H](CCCN)C(=O)N[C@@H](CC(=O)O)C(=O)N[C@H](C)C(=O)N[C@@H](CC(=O)O)C(=O)NCC(=O)N[C@H](CO)C(=O)N[C@@H]([C@H](C)CC(=O)O)C(=O)N[C@@H](CC(=O)c2ccccc2N)C(=O)O[C@@H]1C`
Resp: 0.25 µg/mL

Req: Enter reported MIC90 observed with Staphylococcus lugdunensis for CN[C@H](CC(C)C)C(=O)N[C@H]1C(=O)N[C@@H](CC(N)=O)C(=O)N[C@H]2C(=O)N[C@H]3C(=O)N[C@H](C(=O)N[C@H](C(=O)O)c4cc(O)cc(O)c4-c4cc3ccc4O)[C@H](O)c3ccc(c(Cl)c3)Oc3cc2cc(c3O[C@@H]2O[C@H](CO)[C@@H](O)[C@H](O)[C@H]2O[C@H]2C[C@](C)(N)[C@H](O)[C@H](C)O2)Oc2ccc(cc2Cl)[C@H]1O [VANCOMYCIN]
Resp: 2 µg/mL

Req: Enter reported MIC90 observed with Staphylococcus lugdunensis for CO[C@H]1/C=C/O[C@@]2(C)Oc3c(C)c(O)c4c(O)c(c(/C=N/N5CCN(C)CC5)c(O)c4c3C2=O)NC(=O)/C(C)=C\C=C\[C@H](C)[C@H](O)[C@@H](C)[C@@H](O)[C@@H](C)[C@H](OC(C)=O)[C@@H]1C [RIFAMPIN]
Resp: ≤ 0.03 µg/mL
